Cited source: ChEMBL document CHEMBL4219271

Would you mind telling me the reported IC50 of each entry?
system: HL-60; assay: Cytotoxicity against human HL60 cells assessed as decrease in cell viability after 4 days by MTT assay; type: functional, cell-based; settings: HL-60, 96 h

q: Fill blank: measured IC50 of the compound C=C1C(=O)[C@]23C[C@@]1(O)CC[C@H]2c1ccc(O)c(C)c1[C@@H]3Cn1cc(-c2ccc(Cl)cc2)nn1 is ____.
a: 0.69 µM

q: Fill blank: measured IC50 of the compound C=C1C[C@]23C[C@@]1(O)CC[C@H]2c1ccc(O)c(C)c1[C@@H]3Cn1cc(-c2ccc(F)cc2)nn1 is ____.
a: > 20 µM

q: Fill blank: measured IC50 of the compound Cc1ccc(-c2cn(C[C@H]3c4c(ccc(O)c4C)[C@@H]4CC[C@@]5(C)C[C@]43CC5=O)nn2)cc1 is ____.
a: > 20 µM

q: Fill blank: measured IC50 of the compound Cc1c(O)ccc2c1[C@H](Cn1cc(-c3ccc(F)cc3)nn1)[C@@]13CC(=O)[C@@](C)(CC[C@@H]21)C3 is ____.
a: > 20 µM

q: Fill blank: measured IC50 of the compound Cc1ccc(-c2cn(C[C@H]3c4c(ccc(OS(=O)(=O)c5ccc(C)cc5)c4C)[C@@H]4CC[C@@]5(C)C[C@]43CC5=O)nn2)cc1 is ____.
a: > 20 µM

q: Fill blank: measured IC50 of the compound C=C1C[C@]23C[C@@]1(O)CC[C@@H]2c1cccc(C)c1[C@@H]3Cn1cc(-c2ccccc2)nn1 is ____.
a: > 20 µM

q: Fill blank: measured IC50 of the compound CC(=O)O[C@H]1C(=O)[C@@]2(C)[C@H]([C@H](OC(=O)c3ccccc3)[C@]3(O)C[C@H](OC(=O)[C@H](O)[C@@H](NC(=O)c4ccccc4)c4ccccc4)C(C)=C1C3(C)C)[C@]1(OC(C)=O)CO[C@@H]1C[C@@H]2O is ____.
a: < 0.008 µM

q: Fill blank: measured IC50 of the compound COc1ccc(-c2cn(C[C@H]3c4c(ccc(OS(=O)(=O)c5ccc(C)cc5)c4C)[C@@H]4CC[C@@]5(C)C[C@]43CC5=O)nn2)cc1 is ____.
a: > 20 µM

q: Fill blank: measured IC50 of the compound C=C1C(=O)[C@]23C[C@@]1(O)CC[C@H]2c1ccc(O)c(C)c1[C@@H]3Cn1cc(-c2ccc(C)cc2)nn1 is ____.
a: 0.83 µM

q: Fill blank: measured IC50 of the compound C=C1C[C@]23C[C@@]1(O)CC[C@H]2c1ccc(O)c(C)c1[C@@H]3Cn1cc(-c2ccccn2)nn1 is ____.
a: > 20 µM

q: Fill blank: measured IC50 of the compound C=C1C[C@]23C[C@@]1(O)CC[C@H]2c1ccc(OS(=O)(=O)c2ccc(C)cc2)c(C)c1[C@@H]3Cn1cc(-c2ccc(Cl)cc2)nn1 is ____.
a: > 20 µM

q: Fill blank: measured IC50 of the compound C=C1C[C@]23C[C@@]1(O)CC[C@H]2c1ccc(O)c(C)c1[C@@H]3Cn1cc(-c2ccc(OC)cc2)nn1 is ____.
a: > 20 µM

q: Fill blank: measured IC50 of the compound C=C1C[C@]23C[C@@]1(O)CC[C@H]2c1ccc(OS(=O)(=O)c2ccc(C)cc2)c(C)c1[C@@H]3Cn1cc(-c2ccc(C(F)(F)F)cc2)nn1 is ____.
a: > 20 µM
